Data origin, for the record: patent US5962253A

target.entity: flavoprotein EpiD (Staphylococcus epidermidis, UniProt P30197)
Construct: made in house; host or cells: E. coli K38 (pGP1-2, pT7-5epiD)
Sequence (P30197 whole entry): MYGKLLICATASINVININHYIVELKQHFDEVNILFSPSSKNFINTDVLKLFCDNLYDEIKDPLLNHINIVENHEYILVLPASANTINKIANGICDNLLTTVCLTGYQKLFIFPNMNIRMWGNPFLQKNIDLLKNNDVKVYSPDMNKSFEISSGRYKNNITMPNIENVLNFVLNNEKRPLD
method.notes: EpiD enzyme assay, oxidative decarboxylation of single peptides (reversed phase chromatography, ES-MS)
Format: biochemical, Staphylococcus epidermis
Set-up: key: +: reaction with EpiD; -: no reaction with EpiD occurred, this indicates that using the given assay conditions, no reaction product was detected
test.settings: single peptide determinations; 0.5-1 h at 37° C., pH 8.0, 3 mM dithiothreitol
Non-standard residues stand in square brackets, D forms with d. No end group written: not given here. hCys = N[C@@H](CCS)C(=O)O
reported.metric: Reaction with EpiD

EpiAdesC^+22 (MEAVKEKNDLFNLDVKVNAKESNDSGAEPRIASKFICTPGCAKTGSFNSYC)
-
SFNSYCC--NH2 (SFNSYCC-NH2; cysteine pairing not given here) [the amide of SFNSYCC]
-
Synthetic proepidermin: chemically synthesized proepidermin (amino acids +1 to +22 of EpiA) (IASKFICTPGCAKTGSFNSYCC)
+
K-EpiA (MEAVKEKNDLFNLDVKVNAKESNDSGAEPRIASKFICTPGCAKTGSFNSYCC)
+
SFNSYCHCy (SFNSYC[hCys]; cysteine pairing not given here) [peptide SFNSYC with COOH-terminal homocysteine residue]
-
EpiAC + 22S (MEAVKEKNDLFNLDVKVNAKESNDSGAEPRIASKFICTPGCAKTGSFNSYCC)
-

Attention now shifts to the item below.
Reaction with EpiD reading for Proepidermin: COOH-terminal proepidermin fragment of EpiA (amino acids +1 to +22) (IASKFICTPGCAKTGSFNSYCC) : +

###

target.entity: flavoprotein EpiD (Staphylococcus epidermidis, UniProt P30197)
Construct: made in house; host or cells: E. coli K38 (pGP1-2, pT7-5epiD)
method.notes: EpiD enzyme assay, oxidative decarboxylation of single peptides (reversed phase chromatography, ES-MS)
Assay type: biochemical, Staphylococcus epidermis
Parameters: key: +: reaction with EpiD; -: no reaction with EpiD occurred, this indicates that using the given assay conditions, no reaction product was detected
test.settings: single peptide determinations; 0.5-1 h at 37° C., pH 8.0, 3 mM dithiothreitol
reported.metric: Reaction with EpiD

EpiAR-1Q: mutated EpiA with a mutation in the cleavage sequence of the EpiA leader (MEAVKEKNDLFNLDVKVNAKESNDSGAEPRIASKFICTPGCAKTGSFNSYCC)
+
SFNSYGC
-
EpiAS + 19A (MEAVKEKNDLFNLDVKVNAKESNDSGAEPRIASKFICTPGCAKTGSFNSYCC)
+
